Target: Calcium/calmodulin-dependent protein kinase type II subunit gamma (Homo sapiens); further: in the data inactive means no Kd found up to 30 µM
Sequence (Q13555 whole entry): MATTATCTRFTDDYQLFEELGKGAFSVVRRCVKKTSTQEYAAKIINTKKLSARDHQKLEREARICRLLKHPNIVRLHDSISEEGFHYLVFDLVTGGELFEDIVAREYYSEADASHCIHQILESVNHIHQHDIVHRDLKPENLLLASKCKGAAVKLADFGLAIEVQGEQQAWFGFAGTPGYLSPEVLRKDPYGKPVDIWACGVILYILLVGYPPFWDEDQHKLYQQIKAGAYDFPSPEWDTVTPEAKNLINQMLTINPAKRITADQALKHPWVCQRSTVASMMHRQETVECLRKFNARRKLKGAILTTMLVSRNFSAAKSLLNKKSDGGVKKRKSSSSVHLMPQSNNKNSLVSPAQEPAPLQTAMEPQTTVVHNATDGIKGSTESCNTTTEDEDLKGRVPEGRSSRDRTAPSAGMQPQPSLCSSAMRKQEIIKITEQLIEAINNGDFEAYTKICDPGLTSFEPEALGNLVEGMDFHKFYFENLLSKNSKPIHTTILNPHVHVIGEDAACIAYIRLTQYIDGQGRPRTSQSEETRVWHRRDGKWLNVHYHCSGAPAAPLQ
Active and inactive are the calls of the source.
Returns: one label drawn from 1 (yes) (active), 0 (no) (inactive)

Example entries begin here.
{"columns": ["SMI", "TARGET_OF_ASSAY", "LABEL_CLASS"],
 "data": [
  ["Cn1cc(-c2cnc3ccc4ccc(CS(=O)(=O)NCc5ccccn5)cc4c(=O)c3c2)cn1", "Calcium/calmodulin-dependent protein kinase type II subunit gamma (Homo sapiens)", "0 (no)"],
  ["COc1ccc(S(=O)(=O)N(C(C)=O)c2ccccc2/C=C/c2cc[n+]([O-])cc2)cc1", "Calcium/calmodulin-dependent protein kinase type II subunit gamma (Homo sapiens)", "0 (no)"],
  ["O=C(Nc1c[nH]nc1-c1nc2cc(CN3CCOCC3)ccc2[nH]1)NC1CC1", "Calcium/calmodulin-dependent protein kinase type II subunit gamma (Homo sapiens)", "0 (no)"]
]}

Q. Answer briefly: the call reported for C=CC(=O)N1CCC[C@H](n2c(=O)n(-c3ccc(Oc4ccccc4)cc3)c3c(N)ncnc32)C1 in this assay.
A. 0 (no)

Q. Answer briefly: the call reported for C[C@@H](N)c1ccc(C(=O)Nc2ccnc3[nH]ccc23)cc1 in this assay.
A. 0 (no)

Q. Answer briefly: the call reported for Cc1nc2cc(-n3ncc(C(=O)c4cc5ccccc5[nH]4)c3N)ccc2[nH]1 in this assay.
A. 0 (no)
